assay: self-splicing fitness, log relative to wild type (ln ratio); higher = more splicing; Tetrahymena group I intron in knt gene, E. coli kanamycin selection, DiMSum; sequences stand for … in CUCUCU…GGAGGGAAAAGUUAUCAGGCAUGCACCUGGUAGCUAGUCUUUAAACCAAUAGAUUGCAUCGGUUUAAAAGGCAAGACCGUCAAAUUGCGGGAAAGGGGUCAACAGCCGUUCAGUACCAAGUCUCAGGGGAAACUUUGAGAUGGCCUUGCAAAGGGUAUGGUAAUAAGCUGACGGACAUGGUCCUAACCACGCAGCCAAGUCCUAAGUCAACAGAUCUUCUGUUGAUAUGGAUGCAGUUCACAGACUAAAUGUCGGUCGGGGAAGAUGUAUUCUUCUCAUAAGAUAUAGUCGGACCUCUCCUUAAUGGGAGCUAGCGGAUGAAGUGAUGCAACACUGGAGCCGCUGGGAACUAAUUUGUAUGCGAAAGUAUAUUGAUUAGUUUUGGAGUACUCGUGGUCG; settings: 30 °C;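 also: selection with 25 µg/mL kanamycin versus none on LB agar overnight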
Outcome label depends on self-splicing fitness (ln) relative to -1: at/above gives 1 (yes), below gives 0 (no).

1. GCUAAGCAAUAUUACGGUAA; 0 (no)
2. GAUAAGCAAUAUUACGGCUU; 1 (yes)
3. GAGUAGCAAUAUUACGAUCA; 1 (yes)
4. GUGGAGCAAUAUUACGCACA; 1 (yes)
5. GUCGAGCAAUAUUACGACAC; 1 (yes)
6. CUCGAGCAAUAUUACGUCUC; 0 (no)
7. UGGGAGCAAUAUUACGCACU; 0 (no)
8. GGACAGCAAUAUUACGGGCG; 1 (yes)
9. CUACAGCAAUAUUACGCACU; 0 (no)
10. ACACAGCAAUAUUACGAAAU; 0 (no)
11. CUCAAGCAAUAUUACGAGUU; 0 (no)
12. UUCAAGCAAUAUUACGACAA; 1 (yes)
13. AGCCAGCAAUAUUACGUGCU; 0 (no)
14. UGUAAGCAAUAUUACGGUCA; 1 (yes)
15. CGACAGCAAUAUUACGGUUA; 1 (yes)
16. CGCAAGCAAUAUUACGGGGU; 0 (no)
17. ACUAAGCAAUAUUACGCCUU; 0 (no)
18. UCAGAGCAAUAUUACGCUUU; 0 (no)
19. GGCCAGCAAUAUUACGGGUC; 0 (no)
20. CAGAAGCAAUAUUACGCGGU; 0 (no)
21. AAGCAGCAAUAUUACGGUGA; 1 (yes)
22. CUGGAGCAAUAUUACGGAGU; 0 (no)
23. AGAGAGCAAUAUUACGCUGC; 0 (no)
24. GGAGAGCAAUAUUACGGGCA; 0 (no)
25. UAGUAGCAAUAUUACGCCAA; 0 (no)
26. AGCGAGCAAUAUUACGGGUC; 0 (no)
27. AGCUAGCAAUAUUACGUGGA; 0 (no)
28. CCGCAGCAAUAUUACGUAGU; 0 (no)
29. ACAAAGCAAUAUUACGGUUG; 0 (no)
30. GGCGAGCAAUAUUACGUGAC; 0 (no)
31. AUACAGCAAUAUUACGAUGC; 0 (no)
32. AUGAAGCAAUAUUACGCCUG; 1 (yes)
33. AAGCAGCAAUAUUACGCGUG; 0 (no)

====

assay: self-splicing fitness, log relative to wild type (ln ratio); higher = more splicing; Tetrahymena group I intron in knt gene, E. coli kanamycin selection, DiMSum; sequences stand for … in CUCUCU…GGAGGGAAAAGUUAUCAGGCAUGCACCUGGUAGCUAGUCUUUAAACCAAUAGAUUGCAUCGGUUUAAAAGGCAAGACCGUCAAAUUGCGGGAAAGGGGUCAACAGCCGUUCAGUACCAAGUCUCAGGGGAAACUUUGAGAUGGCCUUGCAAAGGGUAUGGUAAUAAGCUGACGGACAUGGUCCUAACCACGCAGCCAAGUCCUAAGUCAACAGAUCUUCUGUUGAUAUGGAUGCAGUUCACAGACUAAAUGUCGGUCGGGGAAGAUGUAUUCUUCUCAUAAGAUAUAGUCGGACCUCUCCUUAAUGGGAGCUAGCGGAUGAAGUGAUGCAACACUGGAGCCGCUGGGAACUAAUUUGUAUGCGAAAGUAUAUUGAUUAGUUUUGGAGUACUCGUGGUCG; settings: 30 °C
Outcome label depends on self-splicing fitness (ln) relative to -2: at/above gives met, below gives not met.

1) GGGAAGCAAUAUUACGCAGG; not met
2) ACUAAGCAAUAUUACGGUGG; not met
3) AAAGAGCAAUAUUACGCAGU; not met
4) ACCAAGCAAUAUUACGUCGC; not met
5) ACCCAGCAAUAUUACGCUGU; met
6) AACCAGCAAUAUUACGGGAC; not met
7) UUACAGCAAUAUUACGCACC; not met
8) ACCAAGCAAUAUUACGCGUU; met
9) UCAGAGCAAUAUUACGUGAC; not met
10) GCUUAGCAAUAUUACGGUCG; met
11) GGAUAGCAAUAUUACGGAGA; not met
12) AUUUAGCAAUAUUACGAUCC; met
13) GCCCAGCAAUAUUACGGUUU; met
14) GCUAAGCAAUAUUACGCCAU; not met
15) UCGGAGCAAUAUUACGCACU; not met
16) UGUUAGCAAUAUUACGUACA; met
17) GAUUAGCAAUAUUACGUGCG; not met
18) GCCUAGCAAUAUUACGUCGC; met
19) UCAGAGCAAUAUUACGGUCC; not met
20) UGACAGCAAUAUUACGCCUC; not met
21) AAACAGCAAUAUUACGGAGU; not met
22) CGCUAGCAAUAUUACGCCUU; not met
23) UGUUAGCAAUAUUACGAAUC; not met
24) CACCAGCAAUAUUACGUAGC; not met
25) AUAAAGCAAUAUUACGGAUG; met
26) ACGCAGCAAUAUUACGCAUA; not met
27) ACUGAGCAAUAUUACGAACU; met
28) AAACAGCAAUAUUACGAGUC; not met
29) AAUUAGCAAUAUUACGGUGU; not met
30) CCCGAGCAAUAUUACGCUUA; not met
31) GAAAAGCAAUAUUACGGUGA; met
32) CCUGAGCAAUAUUACGCGUA; not met
33) UUAGAGCAAUAUUACGUGAU; not met
34) GAAAAGCAAUAUUACGUGAG; met
35) GCCCAGCAAUAUUACGAACC; met
36) UUCCAGCAAUAUUACGAGAA; met
37) UCGCAGCAAUAUUACGAGAU; not met
38) UGCGAGCAAUAUUACGGGUU; not met
39) CAGCAGCAAUAUUACGGGGU; not met
40) GGAGAGCAAUAUUACGGCCG; not met
41) ACGGAGCAAUAUUACGCAUA; not met
42) GACAAGCAAUAUUACGCCCG; met
43) CGGAAGCAAUAUUACGUGGA; not met
44) CAUCAGCAAUAUUACGGCGA; not met
45) AGCAAGCAAUAUUACGACGU; met
46) AAGGAGCAAUAUUACGCGAG; not met
47) ACCGAGCAAUAUUACGGUCU; not met
48) ACAGAGCAAUAUUACGUCAU; not met
49) CCUAAGCAAUAUUACGCGGC; met
50) CUACAGCAAUAUUACGAGCU; not met
51) GGUAAGCAAUAUUACGAGGG; not met
52) GUCUAGCAAUAUUACGCUCC; met
53) AUGAAGCAAUAUUACGGGCA; met
54) AUCUAGCAAUAUUACGGAUG; not met
55) CCGCAGCAAUAUUACGCAUU; not met
56) AUCGAGCAAUAUUACGGAUU; not met
57) CUAGAGCAAUAUUACGUUGU; not met
58) UUUGAGCAAUAUUACGCAAA; not met
59) UAGUAGCAAUAUUACGUUCU; met
60) UAGGAGCAAUAUUACGUUUG; not met
61) CCGGAGCAAUAUUACGGCGG; met
62) ACUAAGCAAUAUUACGAUUG; not met
63) UGUCAGCAAUAUUACGCUUU; met
64) GUUCAGCAAUAUUACGAUCG; met
65) UAUCAGCAAUAUUACGGUUA; met

====

test: self-splicing fitness, log relative to wild type (ln ratio); higher = more splicing; Tetrahymena group I intron in knt gene, E. coli kanamycin selection, DiMSum; sequences stand for … in CUCUCU…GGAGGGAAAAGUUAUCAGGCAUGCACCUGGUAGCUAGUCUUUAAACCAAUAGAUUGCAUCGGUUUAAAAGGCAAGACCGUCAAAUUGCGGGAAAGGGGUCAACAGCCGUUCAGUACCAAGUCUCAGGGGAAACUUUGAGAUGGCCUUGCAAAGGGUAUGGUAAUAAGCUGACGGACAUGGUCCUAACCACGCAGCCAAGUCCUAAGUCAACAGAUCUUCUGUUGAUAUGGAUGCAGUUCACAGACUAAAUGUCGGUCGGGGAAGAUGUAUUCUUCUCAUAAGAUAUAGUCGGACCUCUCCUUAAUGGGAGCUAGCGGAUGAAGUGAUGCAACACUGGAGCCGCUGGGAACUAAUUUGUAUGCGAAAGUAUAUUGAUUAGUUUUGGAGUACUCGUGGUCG; settings: 37 °C
Documented self-splicing fitness (ln) across a set of sequences
measuredAttribute: self-splicing fitness (ln)

1. GUUCAGCAAUAUUACGGCCG; -0.72
2. CAACAGCAAUAUUACGCAUG; -1.27
3. AUGUAGCAAUAUUACGCCCA; -0.148
4. UUCCAGCAAUAUUACGUCGG; -3.13
5. AGUGAGCAAUAUUACGUGUU; -3.04
6. AUCCAGCAAUAUUACGACAU; 0.408
7. ACUUAGCAAUAUUACGAGGA; -1.66
8. UAGCAGCAAUAUUACGCUUG; -0.988
9. CUCAAGCAAUAUUACGUUUA; -2.65
10. CUUAAGCAAUAUUACGUCGG; -0.424
11. UCCAAGCAAUAUUACGAGUG; -2.03
12. AUUGAGCAAUAUUACGCAAU; -2.07
13. AGCGAGCAAUAUUACGCGGU; -2.53
14. GUCAAGCAAUAUUACGGACU; -2.72
15. CCGUAGCAAUAUUACGCAGC; -3.36
16. AAGCAGCAAUAUUACGGUGA; -1.15
